Tested on: KM12
Assay: NCI tumour cell line growth inhibition, 48 h
Calls of active or inactive are those of the source. Cut-off read from the data, not from the text of the source: active = GI50 up to about 1.1 µM and inactive = higher.
Your reply should match one of these outcome classes. active, inactive

INPUT: Any idea what this test logged for COC(=O)C1C2CC3C1C3C2C(=O)OC (stereo not drawn) ?
OUTPUT: inactive

INPUT: Assay result, entry `COc1cc2ccc(CC(N)=O)cc2cc1OC` — outcome?
OUTPUT: inactive

INPUT: Tell me the assay call for `C(=N/Nc1ccccn1)/c1cccnc1` please.
OUTPUT: inactive

INPUT: Would you mind telling me which call this test gave O=C1CC(CC(OCc2ccccc2)C(COCc2ccccc2)OCc2ccccc2)CC(=O)N1 (stereo not drawn) ?
OUTPUT: inactive

INPUT: Could you please tell me the result logged for `Cc1ccc(Cc2nn(C)c(=O)n2N)cc1` in this assay?
OUTPUT: inactive

INPUT: Recorded test outcome, item O=C(CC1(O)C(=O)Nc2c(Cl)ccc(Cl)c21)c1ccc2ccccc2c1 (stereo not drawn)
OUTPUT: inactive

INPUT: # lookup: test call for `COCCO`
OUTPUT: inactive

INPUT: For `CCOC(=O)c1cc2c(cn1)[nH]c1cccc(N)c12` , what call appears in the results of this test?
OUTPUT: inactive

INPUT: How did this test come out for `COc1ccc(-n2c(=O)n(-c3ccccc3)c(=O)n2-c2ccc(OC)cc2)cc1` ?
OUTPUT: inactive

INPUT: Fill in: this test's call for COC1OC(CS(=O)(=O)O)C(O)C(O)C1O (stereo not drawn) is ___
OUTPUT: inactive

INPUT: Short answer needed: outcome of this test for `CCOC(=O)c1[nH]c(-c2[nH]c(-c3[nH]c(-c4[nH]c(C(=O)OCC)c(C)c4C(=O)OCC)c(C(=O)OCC)c3C)c(C)c2C(=O)OCC)c(C(=O)OCC)c1C` ?
OUTPUT: inactive

INPUT: I'd appreciate the recorded outcome for CC1=NN(C(=O)c2ccccc2O)C(c2ccccc2Cl)C1C(=O)Nc1ccccc1 (stereo not drawn) from this test.
OUTPUT: active

INPUT: Outcome? CCCCC(C)C(OC(=O)CC(CC(=O)O)C(=O)O)C(CC(C)CC(O)CCCCC(O)CC(O)C(C)N)OC(=O)CC(CC(=O)O)C(=O)O (stereo not drawn)
OUTPUT: inactive

INPUT: Which outcome did this test record for the molecule `COc1ccc(NS(=O)(=O)c2ccc(/N=C3\C=C(Nc4ccc(S(=O)(=O)Nc5ccc(OC)nn5)cc4)C(=O)c4ccccc43)cc2)nn1` ?
OUTPUT: inactive

INPUT: Which result was noted for this molecule in the test: `O=C1CCC(c2ccccc2)=NN1c1nsc2ccccc12`
OUTPUT: inactive

INPUT: In this assay, the call recorded for CCOC(=O)C(C)(Cc1ccc(O)cn1)NC(=O)c1ccccc1 (stereo not drawn) was what?
OUTPUT: inactive

INPUT: // outcome(item) with item = `N/C(=N\O)N/N=C/c1ccc2c(c1)OCO2`
OUTPUT: inactive

INPUT: # lookup: test call for `Cc1nc2c(n1CC(C)C)C(=O)c1ccccc1C2=O`
OUTPUT: inactive

INPUT: Per the assay record, what outcome was assigned to CC(N/N=C(\S)N1CCN(c2ccccn2)CC1)c1cccc[n+]1[O-] (stereo not drawn) ?
OUTPUT: inactive

INPUT: Tell me the assay call for `Cc1c(C(=O)NCCO)[n+]([O-])c2cc(Cl)ccc2[n+]1[O-]` please.
OUTPUT: inactive

INPUT: Just curious, what result did COc1ccc(-c2c3c(n(C4OC(CO)C(O)C(O)C4O)c(=S)c2C#N)CCC3)cc1 (stereo not drawn) get here?
OUTPUT: inactive

INPUT: Could you check what this test reported for `CCN(CC)C(=O)c1cc(OC(C)C)ccc1-c1c(C)cc(OC(C)C)c(OC)c1OC` ?
OUTPUT: inactive

INPUT: Hello, I am checking results. What call was entered for CC1C(=O)N(c2ccccc2)NC12CCCc1ccccc12 (stereo not drawn) ?
OUTPUT: inactive

INPUT: Could you kindly confirm the outcome this assay logged for CC(=O)[C@H]1CCC2[C@@H]3CC=C4C(O)C(OS(=O)(=O)O)CC[C@]4(C)C3CC[C@@]21C (stereo partly drawn) ?
OUTPUT: inactive

INPUT: What did the test return for `C=CCNc1nc2c(s1)C(=O)c1ccccc1C2=O` ?
OUTPUT: inactive

INPUT: For CC12CCCCC1C(=O)C2(Cl)Cl (stereo not drawn) , which call appears in the assay record?
OUTPUT: inactive

INPUT: What classification did CC(C)(C)OC(=O)N1C2CCCC23O[C@@H]1c1cc2c(cc1C3=O)OCO2 (stereo partly drawn) end up with in this test?
OUTPUT: inactive

INPUT: Returns: the outcome recorded for `CN(C)c1ccc(/C=C(\C#N)c2nc(-c3cc4ccccc4oc3=O)cs2)cc1` in this assay.
OUTPUT: inactive

INPUT: Any idea what this test logged for CN(C)C1(N(C)C)Oc2c(c(=O)n(C)c(=O)n2C)C(c2ccccc2)C1(F)F (stereo not drawn) ?
OUTPUT: inactive

INPUT: Hey, what did the test say about `CCCCCCCC(=O)NCC(O)CNC(=O)CCCCCCC` ?
OUTPUT: inactive

INPUT: Name the outcome recorded for O=c1n(-c2ccccc2)c(=O)n2n1C1Cc3ccccc3C12 (stereo not drawn) in the assay.
OUTPUT: inactive

INPUT: What is the recorded call for this molecule in the test? `CC1=C(C(=O)Nc2ccccc2)C(c2ccc([N+](=O)[O-])cc2)C(C(=O)Nc2ccccc2)=C(C)N1`
OUTPUT: inactive

INPUT: Hi team, can someone confirm the assay call for C=CCN(N=O)C(=O)NCCCC(NC(C)=O)C(=O)NCc1ccccc1 (stereo not drawn) ?
OUTPUT: inactive

INPUT: Answer briefly: the call reported for `O=C1C(CO)=C(CO)C(=O)c2c(O)ccc(O)c21` in this assay.
OUTPUT: inactive

INPUT: Which outcome was entered for the molecule `C=C(C)[C@@]1(O)CCCC[C@@H]1CC(Sc1ccccc1)Sc1ccccc1` in this test?
OUTPUT: inactive

INPUT: Given CN1CCc2cc3c(c4c2C1C(O)c1ccccc1-4)OCO3 (stereo not drawn) , state the outcome it received in this test.
OUTPUT: inactive

INPUT: Hello, I am checking results. What call was entered for `COc1ccc(Oc2nc3ccc(C(F)(F)F)cc3nc2-c2ccccc2)cc1` ?
OUTPUT: inactive

INPUT: Given `Clc1ccc(-c2nnc(-c3nsc4ccccc34)o2)cc1` , state the outcome it received in this test.
OUTPUT: inactive

INPUT: Could you please tell me the result logged for COC(=O)C(Cc1ccccc1)NP(=O)(O)OCC1OC(n2ccc(N)nc2=O)C(O)C1O (stereo not drawn) in this assay?
OUTPUT: inactive

INPUT: Please state the recorded outcome for this molecule: CSCCC(C(=O)O)N(CC1(O)OCC(O)C(O)C1O)N=O (stereo not drawn)
OUTPUT: inactive

INPUT: Name the outcome recorded for `Cc1nc(SCC(N)=O)c2sc(=S)n(-c3ccccc3)c2n1` in the assay.
OUTPUT: inactive

INPUT: Called result for CC(Oc1cc2oc(=O)cc(-c3ccccc3)c2cc1Cl)C(=O)O (stereo not drawn)
OUTPUT: inactive

INPUT: # outcome recorded in this test, key = CN1C(c2ccccc2)CS(=O)(=O)CS1(=O)=O (stereo not drawn)
OUTPUT: inactive

----------
Test system: SNB-19
Test: NCI tumour cell line growth inhibition, 48 h
Active and inactive are the calls of the source. No stated cut-off is given here; in the data, active = GI50 up to about 1.1 µM and inactive = higher.
Measure Name: GI50

Recorded result, `N#Cc1c(CC(=O)O)cc(=O)n2c1[nH]c1ccccc12` , GI50: > 100 µM (inactive)

The reported value for CCN1CCC(O)(/C=C/c2ccc(C)cc2)C(C(=O)/C=C/c2ccc(C)cc2)C1 (stereo not given) in terms of GI50 is 9.42 µM (inactive)

The molecule listed as `O=C(O)c1cc(-c2ccc3cc4c(cc3c2)OCO4)nc2ccccc12` has a reported GI50 of 25.7 µM (inactive)

Per the record, `c1ccc2c(c1)CCc1c-2n(CCN2CCCCC2)c2ccccc12` has GI50 of 26 µM (inactive)

In plain terms, `Nc1nc(N)c(N=O)c(Nc2ccc(Br)cc2)n1` has a documented GI50 of 45.1 µM (inactive)

Recorded result, `ClCCCSSCCCCl` , GI50: > 100 µM (inactive)

# GI50 (molecule: CC(C)(C)OC(=O)N1C2CCCC23O[C@@H]1c1cc2c(cc1C3=O)OCO2 (stereo not given in full) ) is 39.2 µM (inactive)

Documented GI50 of `O=c1[nH]c(=O)n(COCCO)c2ccc(Br)cc12` : 50.6 µM (inactive)

The molecule identified as `CC1=NN(c2nc(N)nc(-c3cc4ccccc4oc3=N)n2)C(C)(C)C1` registered its GI50 at 32.7 µM (inactive)

For this molecule ( O=C(CC1(O)C(=O)Nc2c(Cl)ccc(Cl)c21)c1ccc2ccccc2c1 (stereo not given) ), measured GI50 is 16.1 µM (inactive)

// GI50 value for COc1ccc(N2C(=O)C3c4[nH]c5ccc(OCc6ccccc6)cc5c4C4CCC(C(C)C)CC4C3C2=O)cc1 (stereo not given) : 9.33 µM (inactive)

Input O=[N+]([O-])c1ccc(C2=NOC(c3ccc(Cl)cc3)N2C23CC4CC(CC(C4)C2)C3)cc1 (stereo not given) . Output GI50: > 100 µM (inactive)

Reported GI50 ( `CCOC(=O)c1nc2ccccc2nc1Nc1ccc(OC)cc1` ) = 16.5 µM (inactive)

# GI50 of `COc1cc(C=O)cc(/C=N/N=C/c2ccccc2O)c1O` = 32.3 µM (inactive)

Recorded GI50 (molecule `Cn1ncc2c(NCc3ccccc3)ncnc21` ): > 100 µM (inactive)

The recorded GI50 for entry `Clc1ccc(-c2nnc(-c3nsc4ccccc34)o2)cc1` equals 30.8 µM (inactive)

Entry under test: `O=C1C=C(c2c(O)ccc3ccccc23)c2cc(O)ccc2C1=O` . Its GI50 was 17.5 µM (inactive)

Memo: COC(=O)C(Cc1ccccc1)NP(=O)(O)OCC1OC(n2ccc(N)nc2=O)C(O)C1O (stereo not given) , reported GI50: > 100 µM (inactive)

// recorded GI50 for `Nc1ccc(-c2nc3ccc(F)cc3s2)cc1Cl` : > 62.2 µM (inactive)

Entry CC(N/N=C(\S)N1CCN(c2ccccn2)CC1)c1cccc[n+]1[O-] (stereo not given) ; GI50 = 32.9 µM (inactive)
